Source: ChEMBL document CHEMBL3877326

# Protocol: Selectivity index, ratio of IC50 for horse serum BuChE to IC50 for electric eel AChE
For each record, write down the corresponding Ratio IC50.

>>> recorded_value("COc1ccc(/C(=N\\c2ccc(C(=O)O)cc2)c2ccccc2)cc1")
47.9
>>> recorded_value("COc1cc(/N=C/c2ccc([N+](=O)[O-])cc2)cc(OC)c1")
64.5
>>> recorded_value("O=C(O)c1ccc(/N=C/c2ccc([N+](=O)[O-])cc2)cc1")
36.5

I have 7 compounds here; please give me Ratio IC50 for each one.
1. O=C(O)c1ccc(/N=C/c2ccccc2[N+](=O)[O-])cc1
2. COc1cc(/N=C/c2ccccc2O)cc(OC)c1
3. COc1cc(/C(C)=N/c2ccc(C(=O)O)cc2)ccc1O
4. COc1cc(/N=C/c2ccccc2[N+](=O)[O-])cc(OC)c1
5. COc1cc(/N=C/c2cc(OC)c(OC)c(OC)c2)cc(OC)c1
6. COc1ccc(/C(=N\c2cc(OC)cc(OC)c2)c2ccccc2)cc1
7. O=C(O)c1ccc(/N=C/c2ccccc2O)cc1

1. 64.5
2. 29.2
3. 214
4. 31.8
5. 402
6. 65.1
7. 39.8

I have 2 compounds here; please give me Ratio IC50 for each one.
1. COc1cc(/C=N/c2ccc(C(=O)O)cc2)cc(OC)c1OC
2. O=C(O)c1ccc(/N=C/c2ccccc2)cc1

32.7
39.7
